B1: CPEB3 Ribozyme (parent)
chain: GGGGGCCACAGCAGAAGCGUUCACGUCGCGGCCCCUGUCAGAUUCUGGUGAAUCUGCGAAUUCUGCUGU

variants of: B1; assay: self-cleavage, relative activity (ratio to wild type); higher = more cleavage; co-transcriptional
Tag: criterion met if measured self-cleavage is not below 0.3, criterion not met if it is.

The following variants have reported results that may help.
Ask | Is self-cleavage at least 0.3? Consider GGGGGCCAAAGCAGAAGCGUUCACGUCGCGGCCCCUGUCAGAUUCUGGUGAAUCUGCGAAUUCUGCAGU
Reply | criterion met

Ask | Assess whether reported self-cleavage for GGGGGCCACAGCAGAAACGUUCACGUCGCGGCCCCUGUCAGAAUCUGGUGAAUCUGCGAAUUCUGCUGU sits at 0.3 or higher.
Reply | criterion not met

Ask | Check the entry GGGGGCCACAGCAGAAGCGUUCACGUCGCCGGCCCUGUCAGAUUCUGGUGAAUCUGCGAAUUCUGCUGU : does self-cleavage equal or exceed 0.3?
Reply | criterion not met

***
Ask | Textbook exercise: given the entry GGGGGCCACAGCAGAAGCGUUCACGUCGCGGCCCCUGUCAGAUUCCGGUGAAUCUGCGAGUUCUGCUGU , state whether its self-cleavage is greater than or equal to 0.3.
Reply | criterion met

Ask | Decide: is the reported value of self-cleavage for GGGGGCCACAGCACAAGCGUUCACGUCGCGGCCCCUGUCAGAUUCUGGUGAAUCUGCGAAUUGUGCUGU equal to or greater than 0.3?
Reply | criterion met

Ask | Identify whether the reported self-cleavage of the following variant is 0.3 or greater: GGAGGCCACAGCAGAAGCGUUCACGUCGCGGCCCCUGUCAGAUUCUGGUGAAUCUGCGAAGUCUGCUGU
Reply | criterion not met

Ask | Does the reported self-cleavage for GGGGGCCACAGGGGAAGCGUUCACGUCGCGGCCCCUGUCAGAUUCUGGUGAAUCUGCGAAUUCUGCUGU fall at or above the 0.3 mark?
Reply | criterion met

Ask | Decide: self-cleavage of GGGGGCCACAGCAGAAGCGUUCACGUCGCGGCCCCUGUCAGAUUGUGGUGAAUAUGCGAAUUCUGCUGU >= 0.3?
Reply | criterion met

Ask | hey, is self-cleavage for this one >= 0.3? GGGGGCCACAGCAGAAGCGUUCACGGCGCGGCCCCUGUCAGAUUCUGGAGAAUCUGCGAAUUCUGCUGU
Reply | criterion met

Ask | Evaluate GGGGGCCACAGCAGAAGCGUUCACGUCCCGGCCCCUGUCAGAUUCUGGAGAAUCUGCGAAUUCUGCUGU : self-cleavage at minimum 0.3?
Reply | criterion not met

Ask | Given GGGGGCCACAGCAGAAGAGUUCACGUCGCGGCCCCUGUCAGAUUCUGGUGAAUCUUCGAAUUCUGCUGU , state whether its self-cleavage is at least 0.3.
Reply | criterion not met

Ask | Exam item: decide whether the reported self-cleavage for GGGGGCCACAGCCGAAGCGUUCACGUCGCGGCCCCUGCCAGAUUCUGGUGAAUCUGCGAAUUCUGCUGU is at least 0.3.
Reply | criterion met

Ask | Is reported self-cleavage greater than or equal to 0.3 here: GGGAGCCACAGCAGAAGCGUUCACGUCGCGGCCCCUGUCAGAUUCUGGUGAAACUGCGAAUUCUGCUGU
Reply | criterion met

Ask | Hello, I need to know if GGGGGCCACAGCAGAAGCAUUCACGUCGCGGCCCCUGUCAGAUUCUGGUUAAUCUGCGAAUUCUGCUGU has measured self-cleavage not below 0.3. Thanks!
Reply | criterion not met

Ask | API: above_or_equal(metric=self-cleavage, cutoff=0.3) for item GGGGGCCACCGCAGAAGCGUUCACGUCGCGGCCCCUGUCAGAUUCUGGUGAAUCUACGAAUUCUGCUGU
Reply | criterion met

Ask | Determine whether measured self-cleavage meets or exceeds 0.3 for GGGGGCCACAGCAGAAGCGUUCACGUCGCGGCCCCUGUCAGAUUAUGGUGAAUCUACGAAUUCUGCUGU
Reply | criterion met

Ask | State whether the measured self-cleavage reaches 0.3, counting equality as reaching it, for GGGGGCCACAGCAGAAGCGUUCACGUCGCGGCCCCUGUUAGAUUCUGGUGAAUCUGCGUAUUCUGCUGU
Reply | criterion met

Ask | hey, is self-cleavage for this one >= 0.3? GGGGGCCACAGCAGAAGCGUUCACGUCGCGGCCCCUCUCAGAUUCUGGUGAAUCUGCGAAUUCCGCUGU
Reply | criterion not met

Ask | State whether the measured self-cleavage reaches 0.3, counting equality as reaching it, for GGGGGCUACAGCAGAAGCGUUCACGUCGGGGCCCCUGUCAGAUUCUGGUGAAUCUGCGAAUUCUGCUGU
Reply | criterion met

Ask | Textbook exercise: given the entry GGGGGCCACAGCAGAAGCAAUCACGUCGCGGCCCCUGUCAGAUUCUGGUGAAUCUGCGAAUUCUGCUGU , state whether its self-cleavage is greater than or equal to 0.3.
Reply | criterion not met

Values were extracted from the RNAGym collection of RNA variant scans (doi:10.7554/elife.80360).
